- test.target: Adenosine receptor A3 (Homo sapiens)
- Sequence (P0DMS8 whole entry): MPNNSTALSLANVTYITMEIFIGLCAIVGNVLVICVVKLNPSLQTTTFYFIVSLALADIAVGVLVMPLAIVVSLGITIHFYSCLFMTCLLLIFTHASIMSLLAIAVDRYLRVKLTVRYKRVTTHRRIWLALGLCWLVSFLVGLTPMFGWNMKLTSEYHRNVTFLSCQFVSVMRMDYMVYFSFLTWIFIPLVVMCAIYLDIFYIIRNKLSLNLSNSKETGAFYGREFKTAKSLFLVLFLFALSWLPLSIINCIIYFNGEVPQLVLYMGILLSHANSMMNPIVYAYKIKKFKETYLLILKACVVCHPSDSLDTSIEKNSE
- method.notes: Displacement of [125I]I-AB-MECA from human recombinant adenosine A3 receptor expressed in CHO cells by liquid scintillation counting
readout: Ki (nM)
Return type: number; implicit unit nM.

O[C@@H]1[C@H](O)CO[C@H]1n1cnc2c(NCc3cccc(Cl)c3)nc(Cl)nc21 :: 75
CNc1ncnc2c1ncn2[C@@H]1OC[C@@H](O)[C@H]1O :: 70.1
CNc1nc(Cl)nc2c1ncn2[C@@H]1OC[C@@H](O)[C@H]1O :: 37.5
O[C@@H]1[C@H](O)CO[C@H]1n1cnc2c(NCc3cccc(Br)c3)ncnc21 :: 59
O[C@@H]1[C@H](O)CO[C@H]1n1cnc2c(NCc3cccc(Cl)c3)ncnc21 :: 76.1

Noted Ki for O[C@@H]1[C@H](O)CO[C@H]1n1cnc2c(NCc3cccc(I)c3)ncnc21 , tested on Adenosine receptor A3 (Homo sapiens): 90.2

Param item: O[C@@H]1[C@H](O)CO[C@H]1n1cnc2c(NCc3cccc(F)c3)nc(Cl)nc21 ; param system: Adenosine receptor A3 (Homo sapiens); output Ki: 284

Tested system Adenosine receptor A3 (Homo sapiens); Ki recorded for O[C@@H]1[C@H](O)CO[C@H]1n1cnc2c(NCc3cccc(F)c3)ncnc21 was 537
